The reported measurements were obtained from paper PMC12415213.

biological target: S. mansoni p97 (Smp_018240) (Schistosoma mansoni, UniProt G4M0P7); assay type: biochemical; conditions: H. sapiens p97 IC50 versus S. mansoni p97 IC50
Sequence (G4M0P7 entry or part of it): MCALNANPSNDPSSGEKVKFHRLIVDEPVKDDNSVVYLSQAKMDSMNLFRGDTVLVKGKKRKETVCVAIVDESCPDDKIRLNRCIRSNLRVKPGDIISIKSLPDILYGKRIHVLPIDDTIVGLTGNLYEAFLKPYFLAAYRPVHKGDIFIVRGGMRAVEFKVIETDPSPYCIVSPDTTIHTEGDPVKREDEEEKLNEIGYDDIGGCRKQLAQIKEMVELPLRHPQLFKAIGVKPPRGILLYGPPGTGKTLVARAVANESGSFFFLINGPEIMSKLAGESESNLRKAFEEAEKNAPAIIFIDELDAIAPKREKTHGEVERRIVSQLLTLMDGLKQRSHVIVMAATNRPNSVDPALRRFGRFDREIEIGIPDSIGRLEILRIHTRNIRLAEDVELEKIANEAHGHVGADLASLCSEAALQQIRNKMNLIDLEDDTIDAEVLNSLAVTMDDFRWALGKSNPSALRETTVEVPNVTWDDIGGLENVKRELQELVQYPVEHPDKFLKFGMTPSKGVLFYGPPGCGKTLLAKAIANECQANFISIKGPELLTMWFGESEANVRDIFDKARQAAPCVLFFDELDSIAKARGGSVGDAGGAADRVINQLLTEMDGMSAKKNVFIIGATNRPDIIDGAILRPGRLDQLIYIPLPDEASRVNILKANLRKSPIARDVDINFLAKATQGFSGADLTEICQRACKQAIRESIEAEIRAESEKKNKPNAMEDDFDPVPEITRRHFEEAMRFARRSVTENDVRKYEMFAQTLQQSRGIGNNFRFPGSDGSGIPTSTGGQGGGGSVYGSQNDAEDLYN
Please assign not met whenever Fold Selectivity (parasite enzyme over human enzyme) is at or above 2 fold, and met whenever it is below.

Field: example entries. Status: answers known.
| Test Smiles | Assigned Category |
| --- | --- |
| Cc1cccnc1-c1nc2cc(NC(=O)C#Cc3ccncc3)ccc2o1 | met |
| O=C(C#Cc1ccncc1)Nc1ccc2oc(-c3ccccn3)nc2c1 | not met |

Enquiry: Determine whether this compound shows Fold Selectivity (parasite enzyme over human enzyme) lower than 2 fold (ties excluded): COc1ccc(C#CC(=O)Nc2ccc3oc(-c4ccccn4)nc3c2)cc1
Return: met

Enquiry: Given the entry O=C(C#Cc1cccc(Cl)c1)Nc1ccc2oc(-c3ccccn3)nc2c1 , would its reported Fold Selectivity (parasite enzyme over human enzyme) be below 2 fold?
Return: met
